Measured values drawn from paper PMC11522000 for this set.

# assay_protocol: 2 weeks GLP rat toxicology study with toxicokinetics
# Format: in vivo
# assay_setup: both, Wistar, plasma, po, 1000 mg/kg/day, AUC0-8, rat, EDI048 1000 mg/kg/day, day 1
observed_property: AUC(0-t) (ng·h/mL)
Reply with just the number (in ng·h/mL).

For this compound ( `CNC(=O)c1ccc(-c2cnn3ccc(C(=O)N(C)c4ccc(Cl)c(C(=O)OC)c4)cc23)cc1` ), measured AUC(0-t) is 11.1

Entry `CNC(=O)c1ccc(-c2cnn3ccc(C(=O)N(C)c4ccc(Cl)c(C(=O)O)c4)cc23)cc1` — recorded AUC(0-t) = 886

====

# assay_protocol: Stability in intestinal S9 fraction
# Type: in vitro ADME
# assay_setup: rat
observed_property: half-life

The measured half-life associated with `CNC(=O)c1ccc(-c2cnn3ccc(C(=O)N(C)c4ccc(Cl)c(C(=O)OC)c4)cc23)cc1` reads > 4 h

====

# assay_protocol: 2 weeks GLP rat toxicology study with toxicokinetics
# Assay type: in vivo
# assay_setup: both, Wistar, plasma, po, 1000 mg/kg/day, Cmax, EDI048 1000 mg/kg/day, day 14
observed_property: Cmax (ng/mL)
Number in ng/mL, nothing else.

Sample `COC(=O)c1cc(N(C)C(=O)c2ccn3ncc(-c4ccc(C(=O)O)cc4)c3c2)ccc1Cl` ; Cmax observed: 0.046

Memo: `CNC(=O)c1ccc(-c2cnn3ccc(C(=O)N(C)c4ccc(Cl)c(C(=O)OC)c4)cc23)cc1` , reported Cmax: 4.13

Measured Cmax of `CNC(=O)c1ccc(-c2cnn3ccc(C(=O)N(C)c4ccc(Cl)c(C(=O)O)c4)cc23)cc1` : 242

====

# assay_protocol: In vivo pharmacokinetic analysis
# assay_setup: male, Beagle, dog, plasma, iv, 0.1 mg/kg
observed_property: Vd (L/kg)
The reply should contain only the number, in L/kg.

Form: molecule = CNC(=O)c1ccc(-c2cnn3ccc(C(=O)N(C)c4ccc(Cl)c(C(=O)OC)c4)cc23)cc1 [EDI048] ; Vd = 1.54

====

# System: C. hominis
# assay_protocol: Cytopathic effect
# Type: cell-based, Cryptosporidium hominis
# assay_setup: read-out: Ch CPE EC50; C. hominis, HCT-8, 48 h
observed_property: EC50 (nM)
Report as a plain number; the unit nM is understood.

Entry under test: CN(C(=O)c1ccn2ncc(-c3ccc(C(N)=O)cc3)c2c1)c1ccc(C#N)cn1 [KDU731, reference compound] . Its EC50 was 130

====

Task for the reader: assign each of the following compounds its reported Cmax.
# assay_protocol: 2 weeks GLP dog toxicology study with toxicokinetics
# Type: in vivo
# assay_setup: both, beagle, dog, plasma, po, 1000 mg/kg/day, Cmax, dog, EDI048 1000 mg/kg/day, day 14
# value in ng/mL; strip the unit string

Cmax reading for COC(=O)c1cc(N(C)C(=O)c2ccn3ncc(-c4ccc(C(=O)O)cc4)c3c2)ccc1Cl [Compound 7] : 224

Lookup result for CNC(=O)c1ccc(-c2cnn3ccc(C(=O)N(C)c4ccc(Cl)c(C(=O)OC)c4)cc23)cc1 [EDI048] ; measured Cmax: 169

response.value for CNC(=O)c1ccc(-c2cnn3ccc(C(=O)N(C)c4ccc(Cl)c(C(=O)O)c4)cc23)cc1 [Compound 6] (field: Cmax) = 72.8

====

# System: P-glycoprotein (MDR1)
# assay_protocol: MDCK MDR1 permeability and efflux
# Assay type: in vitro ADME
# assay_setup: dog, MDCK-MDR1
For each entry below, report its Papp A→B value.
Reply with just the number (in ×10⁻⁶ cm/s).

Reading of Papp A→B for CNC(=O)c1ccc(-c2cnn3ccc(C(=O)N(CC(=O)O)c4ccc(Cl)cc4)cc23)cc1 [Compound 2] with P-glycoprotein (MDR1): 0.89

Noted Papp A→B for CNC(=O)c1ccc(-c2cnn3ccc(C(=O)N(C)c4ccc(Cl)c(C(=O)O)c4)cc23)cc1 [Compound 6] , tested on P-glycoprotein (MDR1): 0.56

The value of Papp A→B recorded for COC(=O)c1cc(Cl)ccc1N(C)C(=O)c1ccn2ncc(-c3ccc(C(N)=O)cc3)c2c1 [Compound 5] when tested on P-glycoprotein (MDR1) reads 2.55

Let me check: CN(C(=O)c1ccn2ncc(-c3ccc(C(N)=O)cc3)c2c1)c1ccc(C#N)cn1 [KDU731, reference compound] , system P-glycoprotein (MDR1), measured Papp A→B is 1.95

Lab note: molecule CNC(=O)c1ccc(-c2cnn3ccc(C(=O)N(C)c4ccc(Cl)c(C(=O)OC)c4)cc23)cc1 [EDI048] tested on P-glycoprotein (MDR1); recorded Papp A→B was 7.92

Readout Papp A→B for CCOC(=O)CN(C(=O)c1ccn2ncc(-c3ccc(C(=O)NC)cc3)c2c1)c1ccc(Cl)cc1 [Compound 1] , test system P-glycoprotein (MDR1), was 7.89
